Relative expression of α-SMA (α-SMA/β-actin, %): recorded values
Test system: Hepatic stellate cell strain LX-2
Test: In vitro effect on expression of LX-2 cell activation marker α-SMA (Western Blot, β-actin reference)
Assay type: cell-based
Details: LX-2 cells, 10.0 uM, 48 hours, negative control = 100%
From the text: Hepatic stellate cell strain LX-2 (from China Center for Type Culture Collection, Shanghai) was selected to study and observe the effects of polypeptide compounds 1-25 on the expression level of LX-2 cell activation marker α-smooth muscle actin (α-SMA). […]
Starred links: 1 amine or outer side, 2 acyl side, 3 side chain; linkers in the order of their positions; H or OH if unused. Non-standard residues stand in square brackets, D forms with d. Groups on a side chain read outwards from the residue. Primed or numbered codes have the meaning given here. No end group written: not given here. *: point of attachment. γGlu = O=C(O)[C@H](CCC(=O)[*:2])N[*:1]; Palmitoyl = CCCCCCCCCCCCCCCC(=O)*; PEG2′ = not defined here
observable: Relative expression of α-SMA (α-SMA/β-actin, %)

# substance, numericValue
data = [
    ("His-(D-Ser)-Gln-Gly-Thr-Phe-Thr-Ser-Asp-Tyr-Ser-Lys-Tyr-Leu-Asp-Glu-Lys-Ala-Ala-Lys(PEG2-PEG2-γGlu- CO(CH2)14C3)-Glu-Phe-Ile-Glu-Trp-Leu-Leu-Arg-Gly-Gly- Gly-Pro-Ser-Ser-Gly-Ala-Pro-Pro-Pro-Ser-NH2 (H[dS]QGTFTSDYSKYLDEKAAK([PEG2′-PEG2′-γGlu-Palmitoyl])EFIEWLLRGGGPSSGAPPPS-NH2) [Compound 10]", 46.35),
    ("His-(D-Ser)-Gln-Gly-Thr-Phe-Thr-Ser-Asp-Tyr-Ser-Lys-Tyr-Leu-Asp-Glu-Lys-Ala-Ala-Lys(PEG2-PEG2-γGlu- CO(CH2)14CH3)-Glu-Phe-Ile-Glu-Trp-Leu-Leu-Asn-Gly-Gly- Gly-Pro-Ser-Ser-Gly-Ala-Pro-Pro-Pro-Ser-NH2 (H[dS]QGTFTSDYSKYLDEKAAK([PEG2′-PEG2′-γGlu-Palmitoyl])EFIEWLLNGGGPSSGAPPPS-NH2) [Compound 15]", 37.25),
]
